Record form. Attribute: EC50. Fill in for each entry.
- Test system: SARS-CoV-2
- Assay comment: Antiviral activity against luciferase independent SARS CoV-2 spike-pseudotyped lentivirus infected in human A549-hACE2-TMPRSS2 cells assessed as inhibition of viral entry measured after 24 hrs before centrifugation by luciferase reporter assay
- Assay type: functional, organism-based
- Condition parameters: Severe acute respiratory syndrome coronavirus 2, A549-hACE2-TMPRSS2
Answers are plain numbers, in µM.

Cc1cc(O)c2c(c1)C(=O)c1cc(O)cc(O)c1C2=O
2.22

State the recorded EC50 for every item in the following list.
1. CC1(C)[C@@H](O[C@H]2O[C@H](C(=O)O)[C@@H](O)[C@H](O)[C@H]2O[C@@H]2O[C@H](C(=O)O)[C@@H](O)[C@H](O)[C@H]2O)CC[C@]2(C)[C@H]3C(=O)C=C4[C@@H]5C[C@@](C)(C(=O)O)CC[C@]5(C)CC[C@@]4(C)[C@]3(C)CC[C@@H]12
2. CN1CCCC(n2nc(Cc3ccc(Cl)cc3)c3ccccc3c2=O)CC1 (stereo unspecified)
3. CCOC(=O)c1c(CSc2ccccc2)n(C)c2cc(Br)c(O)c(CN(C)C)c12
4. CNC(=O)c1cc(Oc2ccc(NC(=O)Nc3ccc(Cl)c(C(F)(F)F)c3)cc2)ccn1
5. C[C@]12CC[C@@H]3c4ccc(O)cc4C[C@@H](CCCCCCCCC[S+]([O-])CCCC(F)(F)C(F)(F)F)[C@H]3[C@@H]1CC[C@@H]2O (stereo partly specified)

Response line:
[2.6, 18.7, 0.44, 0.27, 0.19]

---

- Assay comment: Aggregation property of compound in 50 mM KPi buffer at pH 7 assessed as critical aggregation concentration by DLS assay
- Assay type: physicochemical
Measurement kind: CAC (µM)
Give bare numbers, in µM.

Worked examples follow.
Oc1ccc(-c2[o+]c3cc(O)cc(O)c3cc2O)cc1.[Cl-] [PELARGONIDIN CHLORIDE]
79
CCOC(=O)c1c(CSc2ccccc2)n(C)c2cc(Br)c(O)c(CN(C)C)c12 [UMIFENOVIR]
58
O=c1cc(-c2ccc(O)c(-c3c(O)cc(O)c4c(=O)cc(-c5ccc(O)cc5)oc34)c2)oc2cc(O)cc(O)c12 [AMENTOFLAVONE]
25

Prompt line: Given the entry C=C[C@@](C)(/C=C/c1ccc(O)cc1)CCC=C(C)C [BAKUCHIOL] , report its measured CAC.
Response line: 6.2

---

Give measured CAC for each item. Keep answers brief.
- Assay comment: Aggregation property of compound in 50 mM KPi buffer at pH 7 assessed as critical aggregation concentration by DLS assay
- Type: physicochemical
Answers are plain numbers, in µM.

# example entries with known answers
CC1(C)[C@@H](O[C@H]2O[C@H](C(=O)O)[C@@H](O)[C@H](O)[C@H]2O[C@@H]2O[C@H](C(=O)O)[C@@H](O)[C@H](O)[C@H]2O)CC[C@]2(C)[C@H]3C(=O)C=C4[C@@H]5C[C@@](C)(C(=O)O)CC[C@]5(C)CC[C@@]4(C)[C@]3(C)CC[C@@H]12 [GLYCYRRHIZIN]
10
O=c1c(O)c(-c2ccc(O)c(O)c2)oc2cc(O)cc(O)c12 [QUERCETIN]
62
CC(C)C(=O)OCC(=O)[C@@]12O[C@H](C3CCCCC3)O[C@@H]1C[C@H]1[C@@H]3CCC4=CC(=O)C=C[C@]4(C)[C@H]3[C@@H](O)C[C@@]12C [CICLESONIDE]
8.1
COc1cc(/C=C/C(=O)CC(=O)/C=C/c2ccc(O)c(OC)c2)ccc1O [CURCUMIN]
26

Here is the next item to consider.
Prompt line: Data request, read-out CAC, for O=C(OC[C@H]1O[C@@H](OC(=O)c2cc(O)c(O)c(O)c2)[C@H](OC(=O)c2cc(O)c(O)c(O)c2)[C@@H](OC(=O)c2cc(O)c(O)c(O)c2)[C@@H]1O)c1cc(O)c(O)c(O)c1
Response line: 12
